System: UO-31 renal
TEST_DESCRIPTION: NCI-60 one-dose screen, 48 h (100 = growth as untreated, 0 = no growth, -100 = all killed)
MEASUREMENT_PARAMETERS: 10 µM unless noted
About 83,000 compounds went through this panel and 20% of them were active in at least one assay; those are over-represented in the sample as a whole. Activity calls are given as the source filed them. Rule for the calls: active = growth percent below 10; inactive = the rest.
READOUT_TYPE: growth

Solved cases (4 shown):
{"COMPOUND": "Oc1ccc(OCCOc2ccc(O)cc2)cc1", "growth": "4.76% (active)"}
{"COMPOUND": "C=C1C(=O)O[C@H]2[C@H]1CC/C(CNC(=O)C(C)c1ccc(CC(C)C)cc1)=C\\CC[C@@]1(C)O[C@@H]21 (stereo partly drawn)", "growth": "-99.7% (active)"}
{"COMPOUND": "COc1cccc(-c2nc3occn3c2-c2ccnc(NCCNS(=O)(=O)c3ccc(C(F)(F)F)cc3)n2)c1", "growth": "66.1% (inactive)"}
{"COMPOUND": "NC(=NCc1ccccc1)C(N=Nc1ccccc1)C(=O)NCc1ccccc1 (stereo not drawn)", "growth": "68.3% (inactive)"}

// query growth value for entry CN1C(=O)NC(c2ccc3c(c2)OCO3)C=C1c1ccccc1 (stereo not drawn)
64.7% (inactive)

What does the data say about its growth? Entry: CCN1C(=O)N(CC)C2Nn3c(s/c(=C\c4ccc(OC)cc4)c3=O)=NC21 (stereo not drawn)
48.6% (inactive)

Given Cc1ccc(-c2[nH][nH]c(=O)c2-c2nc3ccccc3s2)cc1 , state its recorded growth.
78.7% (inactive)

Requested read-out: growth. Entry: COc1cc2oc(-c3cccc(C(=O)Nc4ccccc4)c3)cc(=O)c2c(O)c1OC
59.7% (inactive)
